B1: tRNA (parent)
chain: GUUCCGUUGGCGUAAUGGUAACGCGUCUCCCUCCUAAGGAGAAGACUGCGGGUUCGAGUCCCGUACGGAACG

Variants of: B1
Assay: yeast fitness relative to wild type (ratio to wild type); higher = fitter; tRNA-Arg(CCU), competitive growth, 37 C, YPD
This sample holds only a part of the variants without activity.
Listed next: entries and their corresponding yeast fitness.

Worked examples, 3 variants total:
| mutation descriptor | result |
| --- | --- |
| U13C A20G C46U U47A | ≤ 0.5 |
| A21G G50C | 0.76 |
| A40C A42C | 0.619 |

[in] For G41U A45U C49U C61G , what is its reported yeast fitness?
[out] ≤ 0.5

[in] # iterate: C4G G9A G50C
[out] 0.642

[in] # iterate: G10A C29G G56C U59A
[out] ≤ 0.5

[in] # iterate: C24U A42G G50A
[out] ≤ 0.5

[in] # iterate: U8C A21U U32A C49U C55U
[out] ≤ 0.5
